# assay target: Alpha-ketoglutarate-dependent dioxygenase alkB homolog 3 (Homo sapiens)
# Sequence (Q96Q83 whole entry): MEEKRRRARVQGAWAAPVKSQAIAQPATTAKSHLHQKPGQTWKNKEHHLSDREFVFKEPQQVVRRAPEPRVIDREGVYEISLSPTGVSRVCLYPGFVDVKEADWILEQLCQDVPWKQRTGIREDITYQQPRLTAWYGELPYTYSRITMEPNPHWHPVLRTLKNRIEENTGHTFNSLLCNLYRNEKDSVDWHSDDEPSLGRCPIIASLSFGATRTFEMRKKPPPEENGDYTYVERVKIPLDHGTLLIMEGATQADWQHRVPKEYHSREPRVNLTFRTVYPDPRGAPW
# protocol notes: Inhibition of recombinant human AlkBH3 assessed as reduction in formaldehyde release using 40-mer single N3-meC as substrate incubated for 60 mins followed by substrate addition measured after 15 mins by fluorescence assay
quantity measured: IC50

COc1ccc(C2=C(c3ccc(OC)c(OC)c3)c3cc(-c4ccccc4)ccc3C2=O)cc1OC = > 50 µM
Cc1ccc2c(c1)C(c1ccccc1)=C(c1ccccc1)C2=O = > 50 µM
COc1ccc(C2=C(c3cc(OC)cc(OC)c3)C(=O)c3ccc(-c4ccc(C)cc4)cc32)cc1 = > 50 µM
COc1ccc(C2=C(Cl)C(=O)c3ccc(-c4ccccc4)cc32)cc1 = > 50 µM
COc1cc(OC)cc(C2=C(Br)C(=O)c3ccc(C)cc32)c1 = > 50 µM
Cc1ccc2c(c1)C(c1ccc(Cl)c(Cl)c1)=C(c1ccc(Cl)c(Cl)c1)C2=O = 32.3 µM

Q: May I ask what IC50 has been recorded for COc1ccc(C2=C(Cl)C(=O)c3ccc(-c4ccc(C)cc4)cc32)cc1 ?
A: 9.8 µM

Q: May I ask what IC50 has been recorded for COc1ccc(C2=C(c3ccc(OC)cc3)c3cc(-c4ccccc4)ccc3C2=O)cc1 ?
A: > 50 µM

Q: May I ask what IC50 has been recorded for COc1ccc(C2=C(c3cc(OC)cc(OC)c3)c3cc(C)ccc3C2=O)cc1 ?
A: > 50 µM

Q: May I ask what IC50 has been recorded for Cc1ccc(C2=C(c3ccc(C)cc3)c3cc(C)ccc3C2=O)cc1 ?
A: > 50 µM

Q: May I ask what IC50 has been recorded for COc1ccc(C2=C(c3cc(OC)cc(OC)c3)C(=O)c3ccc(-c4ccccc4)cc32)cc1 ?
A: > 50 µM
